The reported numbers originate from paper PMC3569412.

- subject_of_test: h chymase (Homo sapiens)
- Sequence (P23946 22-247): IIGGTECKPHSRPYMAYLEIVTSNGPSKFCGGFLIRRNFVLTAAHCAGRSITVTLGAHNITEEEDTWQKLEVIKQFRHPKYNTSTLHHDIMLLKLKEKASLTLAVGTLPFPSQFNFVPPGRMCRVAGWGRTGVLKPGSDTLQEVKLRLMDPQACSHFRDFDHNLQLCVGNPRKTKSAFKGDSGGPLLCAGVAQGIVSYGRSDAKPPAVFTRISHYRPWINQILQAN
pIC50: −log10 of the molar value.
measured_attribute: pIC50

Give the reported value of pIC50 for this record: CN(C)C(=O)COC(=O)Cc1ccc(OC(=O)c2ccc(NC(=N)N)cc2)cc1
< 4.30

###

- subject_of_test: h plasma kallikrein (Homo sapiens)
- Sequence (P03952 20-638): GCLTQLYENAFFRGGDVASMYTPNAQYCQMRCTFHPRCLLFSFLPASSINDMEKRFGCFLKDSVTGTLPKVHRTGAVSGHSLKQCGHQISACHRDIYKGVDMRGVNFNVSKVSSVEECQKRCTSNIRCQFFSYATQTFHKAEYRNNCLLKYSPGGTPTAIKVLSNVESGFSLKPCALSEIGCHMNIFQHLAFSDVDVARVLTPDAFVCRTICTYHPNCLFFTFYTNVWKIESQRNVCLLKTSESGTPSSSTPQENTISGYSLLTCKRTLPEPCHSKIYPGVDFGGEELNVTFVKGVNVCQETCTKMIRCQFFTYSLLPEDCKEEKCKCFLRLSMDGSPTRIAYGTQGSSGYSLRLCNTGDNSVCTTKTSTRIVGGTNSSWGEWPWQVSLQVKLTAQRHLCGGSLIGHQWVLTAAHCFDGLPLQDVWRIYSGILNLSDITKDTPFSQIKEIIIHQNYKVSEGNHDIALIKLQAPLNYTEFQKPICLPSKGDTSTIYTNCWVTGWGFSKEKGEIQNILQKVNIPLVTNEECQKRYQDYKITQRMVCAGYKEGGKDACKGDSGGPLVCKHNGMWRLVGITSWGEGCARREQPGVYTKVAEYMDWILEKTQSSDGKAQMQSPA
- assay_info: protease selectivity panel, enzyme activity assay
- stated_conditions: 1 h pre-incubation RT
measured_attribute: IC50 (nM)
Give bare numbers, in nM.

Answer with the recorded IC50 of CN(C)C(=O)COC(=O)Cc1ccc(OC(=O)c2ccc(NC(=N)N)cc2)cc1 [Camostat] only.
2

###

- subject_of_test: h kallikrein 1 (Homo sapiens)
- Sequence (P06870 25-262): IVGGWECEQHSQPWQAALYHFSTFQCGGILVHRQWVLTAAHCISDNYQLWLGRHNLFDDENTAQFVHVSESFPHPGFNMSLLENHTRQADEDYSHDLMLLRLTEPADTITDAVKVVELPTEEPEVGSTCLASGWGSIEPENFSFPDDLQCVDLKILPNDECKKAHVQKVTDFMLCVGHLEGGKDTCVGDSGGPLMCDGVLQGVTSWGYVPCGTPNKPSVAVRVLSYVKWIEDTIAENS
- assay_info: protease selectivity panel, enzyme activity assay
- Assay type: biochemical
- stated_conditions: 1 h pre-incubation RT
measured_attribute: IC50

Report IC50 for CN(C)C(=O)COC(=O)Cc1ccc(OC(=O)c2ccc(NC(=N)N)cc2)cc1 [Camostat]
72.4 µM

###

Sequence of the target: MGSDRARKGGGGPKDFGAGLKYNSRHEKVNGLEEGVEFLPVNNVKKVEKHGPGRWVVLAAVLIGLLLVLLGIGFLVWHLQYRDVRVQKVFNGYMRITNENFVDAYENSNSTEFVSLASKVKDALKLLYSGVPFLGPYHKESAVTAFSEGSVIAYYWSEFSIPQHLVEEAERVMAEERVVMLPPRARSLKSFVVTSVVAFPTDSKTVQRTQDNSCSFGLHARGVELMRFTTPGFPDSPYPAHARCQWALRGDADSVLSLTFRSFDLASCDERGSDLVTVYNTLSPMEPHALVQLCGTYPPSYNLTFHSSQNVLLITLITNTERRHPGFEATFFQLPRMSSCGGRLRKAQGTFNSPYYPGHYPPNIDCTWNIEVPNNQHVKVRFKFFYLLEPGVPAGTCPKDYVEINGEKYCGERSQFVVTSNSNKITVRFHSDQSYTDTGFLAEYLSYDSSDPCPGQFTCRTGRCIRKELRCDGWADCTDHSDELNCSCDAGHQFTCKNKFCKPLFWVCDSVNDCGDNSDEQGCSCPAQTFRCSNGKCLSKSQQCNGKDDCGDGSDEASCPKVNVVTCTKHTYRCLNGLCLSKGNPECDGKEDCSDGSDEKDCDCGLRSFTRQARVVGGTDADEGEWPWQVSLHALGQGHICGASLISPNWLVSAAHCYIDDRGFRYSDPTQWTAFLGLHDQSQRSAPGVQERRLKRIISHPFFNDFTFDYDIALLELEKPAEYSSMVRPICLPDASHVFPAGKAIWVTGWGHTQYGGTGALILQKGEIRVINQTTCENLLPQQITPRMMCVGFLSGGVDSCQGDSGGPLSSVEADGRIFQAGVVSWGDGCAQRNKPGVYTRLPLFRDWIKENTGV
measured_attribute: IC50 (nM)
Answers are plain numbers, in nM.

Give IC50 for the following compound: CN(C)C(=O)COC(=O)Cc1ccc(OC(=O)c2ccc(NC(=N)N)cc2)cc1 [Camostat]
6.5
